# TARGET OR SYSTEM: Misshapen-like kinase 1 (Homo sapiens);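 note: mean inhibition value reported, from GSK PKIS kinase profiling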
# CONDITION DETAILS: at 0.1 µM
Give inhibition for every item shown.
Numbers only here, please. The scale is %.

[in] Please supply the value of reported inhibition for the item `O=C1NC(=O)C(c2cccc(Cl)c2)=C1Nc1ccc(O)c(Cl)c1`
[out] 2.81

[in] Please supply the value of reported inhibition for the item CC1=C(C(=O)Nc2ccc3[nH]ncc3c2)C(c2ccc(Cl)c(Cl)c2)CC(=O)N1 (stereo not drawn)
[out] 1.68

[in] Please supply the value of reported inhibition for the item `Nc1nc(-c2ccc3c(c2)C(=Cc2cc(Br)c(O)c(Br)c2)C(=O)N3)cs1`
[out] 10.2

[in] Please supply the value of reported inhibition for the item `NC(=O)c1ccc(-c2nc(-c3ccccn3)c(-c3ccc4c(c3)OCO4)[nH]2)cc1`
[out] 2.63

[in] Please supply the value of reported inhibition for the item `COc1ccccc1Nc1ncc(-c2ccccc2)o1`
[out] 6.62

[in] Please supply the value of reported inhibition for the item `Cn1cc(C=C2C(=O)Nc3cccnc32)c2ccccc21`
[out] 7.13

[in] Please supply the value of reported inhibition for the item `CCCN1CCC=C(c2ccc(Nc3nc(Nc4ccccc4C(N)=O)c4cc[nH]c4n3)c(C)c2)C1`
[out] 14.8

[in] Please supply the value of reported inhibition for the item `Cc1ccc(NC(=O)c2ccnc(N3CCCC3)c2)cc1-c1ccc(C(=O)NCC2CC2)cc1`
[out] 11.6

[in] Please supply the value of reported inhibition for the item `CS(=O)(=O)CCNCc1nc(-c2ccc3ncnc(Nc4ccc(F)c(Cl)c4)c3c2)cs1`
[out] 2.93

[in] Please supply the value of reported inhibition for the item `O=C1NC(=O)C(N2CCc3ccccc32)=C1c1ccc(Cl)cc1`
[out] 5.14

[in] Please supply the value of reported inhibition for the item `NS(=O)(=O)c1cccc(-c2ccc3c(NC(=O)C4CC4)n[nH]c3c2)c1`
[out] 1.11

[in] Please supply the value of reported inhibition for the item `Cc1ccc(C(=O)NC2CCCCC2)cc1-c1ccc(C(=O)NCC2CC2)cc1`
[out] 4.93

[in] Please supply the value of reported inhibition for the item `CCn1c(-c2nonc2N)nc2cncc(C(=O)N3CCNCC3)c21`
[out] 5.47
